Origin of the recorded values: patent US20250270319A1

# Measured on: T1, recombinant human CD33 protein (Sino Biologicals) (human, UniProt P20138 18-259)
# T1 construct: Bought protein; also called recombinant CD33
# Assay procedure: BLI (ForteBio), antibody on anti-human Fc sensor, CD33 10 nM
# Protocol: Affinity parameters of the antibody variants for human CD33 were measured by BioLayer Interferometry in a ForteBio assay according to standard techniques (Estep et al. (2013) MAbs 5(2): 270-8) and were compared to those of the parental antibody (antibody 6C7H8) and the parental humanized antibody (antibody 6C71H5). Briefly, the antibodies were captured on anti-human Fc Biosensors (Pall ForteBio). […] Apparent affinity constants (KD) were calculated from the ratio kd/kₐ.
Parameter: koff (s⁻¹)

>>> data_value("anti-CD33 antibody 6C7H22 (antibody, V domains shown, VH/VL only) VH: EVQLVESGGGLVQPGGSLRLSCAGSGFTFSNYTMNWVRQAPGKGLEWVAEIRLKSNNYVTNYAASVKGRFTISRDDSKNSVYLQMNSLKTEDTGVYYCTRAGYYVPFAYWGQGTLVTVSS VL: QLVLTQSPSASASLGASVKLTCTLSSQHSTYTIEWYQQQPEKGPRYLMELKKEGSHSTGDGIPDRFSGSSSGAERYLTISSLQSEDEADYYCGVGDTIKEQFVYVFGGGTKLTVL")
0.00113
>>> data_value("anti-CD33 antibody 6C7H8 (antibody, IgG1, V domains shown, VH/VL only; also called 6C7H8 IgG1; parental antibody) VH: EVQLVESGGGLVQPGGSLRLSCAGSGFTFSNYCMNWVRQAPGKGLEWVAEIRLKSNNYVTNYAASVKGRFTISRDDSKNSVYLQMNSLKTEDTGVYYCTRAGYYVPFAYWGQGTLVTVSS VL: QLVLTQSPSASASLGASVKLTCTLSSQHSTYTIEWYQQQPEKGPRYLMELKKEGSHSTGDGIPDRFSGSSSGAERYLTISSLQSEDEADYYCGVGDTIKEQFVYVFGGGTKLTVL")
0.000413
